Entry source: patent US11945812B2

protocol.notes: Plasma protein binding (equilibrium dialysis), human plasma
Format: in vitro ADME
measurement.context: read-out: PPB human fu
Description: Plasma Protein Binding (PPB) Binding of test compound to plasma was determined using equilibrium dialysis (ED) and quantitative mass spectrometry interfaced with liquid chromatography (LC-MS). […] After incubation, protein was precipitated from aliquots of each chamber and the concentration of test compound in the supernatant of the plasma-containing compartment (cplasma) and of the buffer-containing compartment (Cbuffer) was determined by LC-MS. […]
measured.metric: fraction unbound

As a guide, the following entries are already answered.
molecule="C=C(F)C(=O)N1CCN(c2nc(OC[C@@H]3CCCN3C)nc3c2CCN(c2cccc4cccc(Cl)c24)C3)C[C@@H]1CC#N [adagrasib, reference compound]" measured_metric="fraction unbound" test_value=0.014
molecule="COC/C=C/C(=O)N1CCN(c2cc(O[C@@H](C)[C@@H]3CCCN3C)nc(-c3cc(C4(C)CCCc5sc(N)c(C#N)c54)no3)n2)CC1 (stereo partly drawn)" measured_metric="fraction unbound" test_value=0.043
molecule=COC/C=C/C(=O)N1CCN(c2cc(O[C@@H](C)[C@@H]3CCCN3C)nc(-c3cc([C@@]4(C)CCCc5sc(N)c(C#N)c54)on3)n2)CC12CC2 measured_metric="fraction unbound" test_value=0.02
molecule=C=CC(=O)N1CCN(c2cc(O[C@@H](C)[C@@H]3CCCN3C)nc(-c3cc([C@@]4(C)CCCc5sc(N)c(C#N)c54)on3)n2)CC12CC2 measured_metric="fraction unbound" test_value=0.019

I: C=CC(=O)N1CCC(Oc2cc(O[C@@H](C)[C@@H]3CCCN3C)nc(-c3cc([C@@]4(C)CCCc5sc(N)c(C#N)c54)on3)n2)CC1
II: C=CC(=O)N1CCN(c2cc(O[C@@H](C)[C@@H]3CCCN3C)nc(-c3cc(C4(C)CCCc5sc(N)c(C#N)c54)on3)n2)CC1 (stereo partly drawn)
Recorded fraction unbound values differ for I and II ; which one is higher? Answer with the label corresponding to your selection.
II

====

protocol.notes: Plasma protein binding (equilibrium dialysis), human plasma
Format: in vitro ADME
measurement.context: read-out: PPB human fu
measured.metric: fraction unbound

a: C=CC(=O)N1CCN(c2cc(O[C@@H](C)[C@@H]3CCCN3C)nc(-c3cc([C@@]4(C)CCCc5sc(N)c(C#N)c54)on3)n2)[C@H](C)C1
b: C=C(F)C(=O)N1CCN(c2cc(O[C@@H](C)[C@@H]3CCCN3C)nc(-c3cc([C@@]4(C)CCCc5sc(N)c(C#N)c54)on3)n2)[C@H](C)C1
Recorded fraction unbound values differ for a and b ; which one is higher? Answer with the label corresponding to your selection.
a
(a: 0.032, b: 0.013)

====

measured.target: Ba/F3 cells bearing a KRAS G12C mutation (Homo sapiens, UniProt P01116, G12C, cells depend on it)
Sequence (P01116 whole entry G12C): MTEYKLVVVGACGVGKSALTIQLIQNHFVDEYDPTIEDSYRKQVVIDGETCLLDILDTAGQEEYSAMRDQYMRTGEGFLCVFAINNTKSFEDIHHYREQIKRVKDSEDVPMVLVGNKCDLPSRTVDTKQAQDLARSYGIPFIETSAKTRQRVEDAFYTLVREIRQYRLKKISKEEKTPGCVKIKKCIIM
protocol.notes: Ba/F3 cell model proliferation assay (AlamarBlue, 72 h)
Type: cell-based
measurement.context: corrected by plasma protein binding in 10% FCS (fraction unbound); read-out: IC50 Ba/F3 KRASG12C (corrected)
measured.metric: GI50 (nM)

I: C=CC(=O)N1[C@H](C)CN(c2cc(O[C@@H](C)[C@@H]3CCCN3C)nc(-c3cc([C@@]4(C)CCCc5sc(N)c(C#N)c54)on3)n2)C[C@@H]1C
II: C=C(F)C(=O)N1CCN(c2cc(O[C@@H](C)[C@@H]3CCCN3C)nc(-c3cc([C@@]4(C)CCCc5sc(N)c(C#N)c54)on3)n2)[C@H](C)C1
Recorded GI50 values differ for I and II ; which one is higher? Answer with the label corresponding to your selection.
II

a: C=CC(=O)N1CCC(Oc2cc(N3CCN(C)C[C@@H]3C)nc(-c3cc(C4(C)CCCc5sc(N)c(C#N)c54)no3)n2)CC1 (stereo partly drawn)
b: C=CC(=O)N1CCN(c2cc(O[C@@H](C)[C@@H]3CCCN3C)nc(-c3cc([C@@]4(C)CCCc5sc(N)c(C#N)c54)sn3)n2)CC12CC2
c: COC/C=C/C(=O)N1CCN(c2cc(O[C@@H](C)[C@@H]3CCCN3C)nc(-c3cc([C@@]4(C)CCCc5sc(N)c(C#N)c54)sn3)n2)CC12CC2
Sort the compounds on GI50; start with the lowest figure. Use the labels to give the requested order.
b, a, c
(b: 1.08 nM, a: 8.9 nM, c: 14.8 nM)
